Assay: Study CL-007 DDI and PKE cohorts, plasma PK
Format: in vivo
Details: human, DDI Cohort, Day 16, median

Smiles Input: O[C@@](Cn1cnnn1)(c1ccc(F)cc1F)C(F)(F)c1ccc(-c2ccc(OCC(F)(F)F)cc2)cn1
Tmax (h): 6

###

Experiment: Study CL-001 single-dose escalation in healthy subjects, plasma PK
Assay type: in vivo, human
Conditions: both sexes, human, plasma, po, 80 mg, Cohort 5, single oral 80 mg, fasted; mean
Value Type: Cmax (ng/mL)

Smiles Input: O[C@@](Cn1cnnn1)(c1ccc(F)cc1F)C(F)(F)c1ccc(-c2ccc(OCC(F)(F)F)cc2)cn1
Data Value: 165

###

Experiment: Phase 2b study and three Phase 3 studies, plasma concentration at end of dosing
Type: in vivo
Conditions: human, oral, loading dose Days 1 and 2, then 150 mg weekly, read-out: mean plasma concentrations at the end of the dosing period (Week 14)

Smiles Input: O[C@@](Cn1cnnn1)(c1ccc(F)cc1F)C(F)(F)c1ccc(-c2ccc(OCC(F)(F)F)cc2)cn1
concentration at 14 week: 2500 to 3500 ng/mL

###

Assay: Study CL-001 single-dose escalation in healthy subjects, plasma PK
Format: in vivo, human
Conditions: both sexes, human, plasma, po, 320 mg, Cohort 8, single oral 320 mg, Fed (high-fat breakfast); median; read-out: Tmax

Smiles Input: O[C@@](Cn1cnnn1)(c1ccc(F)cc1F)C(F)(F)c1ccc(-c2ccc(OCC(F)(F)F)cc2)cn1
Tmax (h): 6

###

Test: Study CL-001 single-dose escalation in healthy subjects, plasma PK
Assay type: in vivo, human
Details: both sexes, human, plasma, po, 80 mg, Cohort 5, single oral 80 mg, fasted; median; read-out: Tmax
Value Type: Tmax (h)

Smiles Input: O[C@@](Cn1cnnn1)(c1ccc(F)cc1F)C(F)(F)c1ccc(-c2ccc(OCC(F)(F)F)cc2)cn1
Data Value: 4.01

###

Experiment: Study CL-004 plasma PK
Assay type: in vivo, human
Conditions: human, plasma, 600 mg, 600 mg BID treatment group; read-out: median t1/2 (converted)

Smiles Input: O[C@@](Cn1cnnn1)(c1ccc(F)cc1F)C(F)(F)c1ccc(-c2ccc(OCC(F)(F)F)cc2)cn1
half-life, days: 160

###

Assay: Study CL-007 DDI and PKE cohorts, plasma PK
Assay type: in vivo
Details: human, DDI Cohort, Day 16, geometric mean

Smiles Input: O[C@@](Cn1cnnn1)(c1ccc(F)cc1F)C(F)(F)c1ccc(-c2ccc(OCC(F)(F)F)cc2)cn1
Value Unit: ng/mL
Cmax: 11600

###

Assay: Study CL-003 in subjects with tinea pedis, plasma PK
Assay type: in vivo, human
Conditions: human, plasma, Mid Dose 600 mg/150 mg, Day 1; read-out: AUC0−8

Molecule: O[C@@](Cn1cnnn1)(c1ccc(F)cc1F)C(F)(F)c1ccc(-c2ccc(OCC(F)(F)F)cc2)cn1 [Oteseconazole, oteseconazole]
AUC(0-t) / ng·h/mL: 3320

###

Test: Study CL-017 plasma PK
Type: in vivo, human
Settings: human, plasma, oral; 4 × 150 mg (600 mg), Day 1; Median
Value Type: Tmax (h)

Smiles Input: O[C@@](Cn1cnnn1)(c1ccc(F)cc1F)C(F)(F)c1ccc(-c2ccc(OCC(F)(F)F)cc2)cn1
Value Unit: h
Data Value: 4.01

###

Assay: Study CL-001 single-dose escalation in healthy subjects, plasma PK
Assay type: in vivo, human
Settings: both sexes, human, plasma, oral, all cohorts; read-out: Vz/F, range of cohort averages
Value Type: Vd/F

Smiles Input: O[C@@](Cn1cnnn1)(c1ccc(F)cc1F)C(F)(F)c1ccc(-c2ccc(OCC(F)(F)F)cc2)cn1
Data Value: 696 to 1650 L

###

Assay: Study CL-005 in subjects with onychomycosis, plasma PK
Format: in vivo
Conditions: human, after 12 weeks, 300 mg 12-week treatment group, read-out: plasma exposure
Value Type: concentration at 12 weeks (ng/mL)

Smiles Input: O[C@@](Cn1cnnn1)(c1ccc(F)cc1F)C(F)(F)c1ccc(-c2ccc(OCC(F)(F)F)cc2)cn1
Value Type: concentration at 12 weeks
Data Value: 6750

###

Assay: Study CL-007 DDI and PKE cohorts, plasma PK
Format: in vivo
Design: concentration or dose not given beside the values
Settings: human, DDI Cohort, Day 16, geometric mean, read-out: AUC0-24

Smiles Input: O[C@@](Cn1cnnn1)(c1ccc(F)cc1F)C(F)(F)c1ccc(-c2ccc(OCC(F)(F)F)cc2)cn1
AUC(0-t) / µg·h/mL: 243

###

Test: Study CL-007 DDI and PKE cohorts, plasma PK
Type: in vivo
Design: concentration or dose not given beside the values
Conditions: human, DDI Cohort, Day 16, geometric mean
Value Type: AUC(0-inf) (µg·h/mL)

Compound: O[C@@](Cn1cnnn1)(c1ccc(F)cc1F)C(F)(F)c1ccc(-c2ccc(OCC(F)(F)F)cc2)cn1 [Oteseconazole, oteseconazole]
Data Value: 4880

###

Test: Study CL-007 DDI and PKE cohorts, plasma PK
Type: in vivo
Parameters: concentration or dose not given beside the values
Settings: human, DDI Cohort, Day 3, geometric mean, read-out: AUC0-24
Value Type: AUC(0-t) (ng·h/mL)

Smiles Input: O[C@@](Cn1cnnn1)(c1ccc(F)cc1F)C(F)(F)c1ccc(-c2ccc(OCC(F)(F)F)cc2)cn1
Data Value: 24600

###

Experiment: Study CL-001 single-dose escalation in healthy subjects, plasma PK
Assay type: in vivo, human
Conditions: both sexes, human, plasma, po, 20 mg, Cohort 3, single oral 20 mg, fasted; median; read-out: Tmax
Value Type: Tmax (h)

Smiles Input: O[C@@](Cn1cnnn1)(c1ccc(F)cc1F)C(F)(F)c1ccc(-c2ccc(OCC(F)(F)F)cc2)cn1
Value Type: Tmax
Data Value: 5.03

###

Test: Study CL-006 plasma PK
Assay type: in vivo, human
Conditions: human, plasma; calculated using a population PK approach
Value Type: half-life

Molecule: O[C@@](Cn1cnnn1)(c1ccc(F)cc1F)C(F)(F)c1ccc(-c2ccc(OCC(F)(F)F)cc2)cn1 [Oteseconazole, oteseconazole]
Data Value: ~171 days

###

Assay: Study CL-012 plasma concentrations
Type: in vivo
Details: human, 150 mg, Week 12, maximum concentration, read-out: mean (SD) plasma concentration

Molecule: O[C@@](Cn1cnnn1)(c1ccc(F)cc1F)C(F)(F)c1ccc(-c2ccc(OCC(F)(F)F)cc2)cn1 [Oteseconazole, oteseconazole]
concentration at 12 week (ng/mL): 3610

###

Experiment: Study CL-003 in subjects with tinea pedis, plasma PK
Type: in vivo, human
Details: human, plasma, Mid Dose 600 mg/150 mg, Day 14

Smiles Input: O[C@@](Cn1cnnn1)(c1ccc(F)cc1F)C(F)(F)c1ccc(-c2ccc(OCC(F)(F)F)cc2)cn1
Cmax: 2180 ng/mL

###

Assay: Study CL-011 plasma concentrations
Assay type: in vivo
Details: human, Day 14, after loading 150 mg QD for 7 days, read-out: mean (SD) plasma concentration

Smiles Input: O[C@@](Cn1cnnn1)(c1ccc(F)cc1F)C(F)(F)c1ccc(-c2ccc(OCC(F)(F)F)cc2)cn1
Value Unit: ng/mL
concentration at 14 day: 1680

###

Assay: Study CL-001 single-dose escalation in healthy subjects, plasma PK
Type: in vivo, human
Conditions: both sexes, human, plasma, po, 20 mg, Cohort 3, single oral 20 mg, fasted; mean, N = 5
Method: Study Oteseconazole CL-001 (hereafter referenced as “CL-001”) was a single-center, Phase 1, double-blind, randomized, placebo-controlled, dose-escalating study in healthy adult subjects. Sixty-four subjects (43 males and 21 females) between 18 and 55 years of age were enrolled in 8 dose groups. Within each dose group, 6 subjects received oteseconazole and 2 subjects received placebo. […] Dose escalation proceeded only after safety and PK of the previous dose were determined. […]

Smiles Input: O[C@@](Cn1cnnn1)(c1ccc(F)cc1F)C(F)(F)c1ccc(-c2ccc(OCC(F)(F)F)cc2)cn1
AUC(0-inf) (ng·h/mL): 16100

###

Experiment: Study CL-003 in subjects with tinea pedis, plasma PK
Type: in vivo, human
Conditions: human, plasma, Low Dose 200 mg/50 mg, Day 14; read-out: AUC0−8

Compound: O[C@@](Cn1cnnn1)(c1ccc(F)cc1F)C(F)(F)c1ccc(-c2ccc(OCC(F)(F)F)cc2)cn1 [Oteseconazole, oteseconazole]
Value Unit: ng·h/mL
AUC(0-t): 7950

###

Assay: Study CL-003 in subjects with tinea pedis, plasma PK
Assay type: in vivo, human
Settings: human, plasma, High Dose 1200 mg/300 mg, Day 14

Smiles Input: O[C@@](Cn1cnnn1)(c1ccc(F)cc1F)C(F)(F)c1ccc(-c2ccc(OCC(F)(F)F)cc2)cn1
Value Unit: h
Tmax: 5.02

###

Test: Study CL-001 single-dose escalation in healthy subjects, plasma PK
Type: in vivo, human
Conditions: both sexes, human, plasma, po, 160 mg, Cohort 6, single oral 160 mg, fasted; mean

Smiles Input: O[C@@](Cn1cnnn1)(c1ccc(F)cc1F)C(F)(F)c1ccc(-c2ccc(OCC(F)(F)F)cc2)cn1
Value Unit: µg·h/mL
AUC(0-inf): 109
